Listed compounds paired with reported Ki
assayed.system: GABA A α5 (α5β3γ2) (Homo sapiens, UniProt P18507+P31644)
Construct: expressed in transfected cells; host or cells: HEK293, transiently transfected; membrane preparation
assay.method.text: [3H]flumazenil competition binding, human GABA A α5 receptor
condition.notes: human receptor α5β3γ2 transiently transfected in HEK293 cells; competition for [3H]flumazenil 0.5 nM; 1 hour at 4° C.; means of two determinations; read-out: hKi GABA A α5
recorded.metric: Ki

> print(dat)
                                   compound  recorded.metric  reported
1  Cc1onc(-c2ccccc2)c1/C=C/c1ncc(C(=O)NC2CCOCC2)s1 [Example 63]               Ki    1.2 nM
2  Cc1onc(-c2ccccn2)c1CCc1ncc(C(=O)NC2CCOCC2)s1 [Example 24]               Ki   18.8 nM
3  Cc1nc(CCc2c(-c3ccccc3)noc2C)sc1C(=O)NC1CCOC1 (stereo in doubt) [Example 2]               Ki   10.9 nM
4  CCCCc1noc(C)c1CCc1nc(C)c(C(=O)N[C@@H](C)CO)s1 [Example 54]               Ki   15.9 nM
5  CCCCc1noc(C)c1CCc1nc(C)c(C(=O)N[C@H](C)CO)s1 [Example 55]               Ki   35.6 nM
6  Cc1nc(/C=C/c2c(-c3ccc(F)cn3)noc2C)sc1C(=O)NC(C)C [Example 71]               Ki    1.5 nM
7  CCCCc1noc(C)c1CCc1nc(C)c(C(=O)NCC(C)O)s1 (stereo not drawn) [Example 56]               Ki   16.9 nM
8  CCCCc1noc(C)c1/C=C/c1nc(C)c(C(=O)NC2CCCC2O)s1 (stereo in doubt) [Example 114]               Ki    6.4 nM
9  Cc1onc(-c2ccccn2)c1CCc1ncc(C(=O)NCCO)s1 [Example 29]               Ki   32.4 nM

Data credit: patent US8178522B2
